meta.source: patent US7294639B2

- TESTED_SYSTEM: chimeric Gal-PPARγ receptor (LBD) (Homo sapiens)
- Construct: chimeric Gal-PPARγ receptor (LBD); expressed in transfected cells; host or cells: HeLa cells, stably transfected
- Sequence (P37231 238-503 limits assumed): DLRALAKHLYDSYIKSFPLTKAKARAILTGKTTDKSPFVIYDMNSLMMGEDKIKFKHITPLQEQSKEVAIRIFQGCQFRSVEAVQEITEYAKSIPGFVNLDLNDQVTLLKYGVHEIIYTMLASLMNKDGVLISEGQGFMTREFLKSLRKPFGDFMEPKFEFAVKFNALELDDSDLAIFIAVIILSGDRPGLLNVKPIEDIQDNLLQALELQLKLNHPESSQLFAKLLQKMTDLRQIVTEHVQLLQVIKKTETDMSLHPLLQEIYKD
- ASSAY_COMMENT: Transactivation test, PPARγ agonist activity (luciferase)
- Type: cell-based
- SETUP_CONDITIONS: concentration giving 50% activation relative to the reference agonist
- Experimental: The agonist activity towards the PPARγ receptors of the compounds according to the invention may be evaluated by transactivation tests. The capacity of the molecules to activate and/or inhibit the PPARγ receptors is evaluated from Hela cells stably transfected with the chimeric Gal-PPARγ receptor (LBD). […] The agonist activity of the test product will be expressed as a percentage activation relative to the control agonist, the reference agonist at 1 μM. […]
Reported log10 of AC50 values follow for various compounds
REPORTED_PROPERTY: log10 of AC50 (log10 of the value in nM)

>  <COMPOUND>
COC(=O)CCCCCCCCC(=O)N(C)Cc1cccc(-c2ccc(CC3SC(=O)NC3=O)cc2)c1 (stereo not shown)

>  <log10 of AC50>
1.74

$$$$
>  <COMPOUND>
CSc1ccc(C(=O)N(C)Cc2cccc(-c3ccc(CC4SC(=O)NC4=O)cc3)c2)cc1 (stereo not shown)

>  <log10 of AC50>
1.63

$$$$
>  <COMPOUND>
CN(Cc1cccc(-c2ccc(CC3SC(=O)NC3=O)cc2)c1)C(=O)c1ccc(-c2ccccc2)cc1 (stereo not shown)

>  <log10 of AC50>
0.52

$$$$
>  <COMPOUND>
CCO[C@@H](Cc1ccc(-c2cccc(CN(C)C(=O)c3ccc(-c4ccccc4)cc3)c2)cc1)C(=O)O

>  <log10 of AC50>
0.46

$$$$
>  <COMPOUND>
CN(Cc1cccc(-c2ccc(CC3SC(=O)NC3=O)cc2)c1)C(=O)c1ccc(N(C)C)c2ccccc12 (stereo not shown)

>  <log10 of AC50>
1.56

$$$$
>  <COMPOUND>
CN(Cc1cccc(-c2ccc(CC3SC(=O)NC3=O)cc2)c1)C(=O)c1cc2ccccc2s1 (stereo not shown)

>  <log10 of AC50>
1.18

$$$$
>  <COMPOUND>
CN(Cc1cccc(-c2ccc(CC3SC(=O)NC3=O)cc2)c1)C(=O)c1cccc2ccccc12 (stereo not shown)

>  <log10 of AC50>
1.37

$$$$
>  <COMPOUND>
COC(=O)c1ccc(C(=O)N(C)Cc2cccc(-c3ccc(CC4SC(=O)NC4=O)cc3)c2)cc1 (stereo not shown)

>  <log10 of AC50>
1.12

$$$$
>  <COMPOUND>
CN(Cc1cccc(-c2ccc(CC3SC(=O)NC3=O)cc2)c1)C(=O)c1ccc2cc(O)ccc2c1 (stereo not shown)

>  <log10 of AC50>
0.58

$$$$
>  <COMPOUND>
CN(Cc1cccc(-c2ccc(CC3SC(=O)NC3=O)cc2)c1)C(=O)c1ccc(C(=O)c2ccccc2)cc1 (stereo not shown)

>  <log10 of AC50>
0.70

$$$$
>  <COMPOUND>
CN(Cc1cccc(-c2ccc(CC3SC(=O)NC3=O)cc2)c1)C(=O)C12CC3CC(CC(C3)C1)C2 (stereo not shown)

>  <log10 of AC50>
2.26

$$$$
>  <COMPOUND>
CN(Cc1cccc(-c2ccc(CC3SC(=O)NC3=O)cc2)c1)C(=O)c1cccn1C (stereo not shown)

>  <log10 of AC50>
2.49

$$$$
>  <COMPOUND>
CN(Cc1cccc(-c2ccc(CC3SC(=O)NC3=O)cc2)c1)C(=O)c1ccc(S(C)(=O)=O)cc1 (stereo not shown)

>  <log10 of AC50>
2.16

$$$$
>  <COMPOUND>
CN(Cc1cccc(-c2ccc(CC3SC(=O)NC3=O)cc2)c1)C(=O)CCC1CCCC1 (stereo not shown)

>  <log10 of AC50>
1.38

$$$$
>  <COMPOUND>
CN(Cc1cccc(-c2ccc(CC3SC(=O)NC3=O)cc2)c1)C(=O)c1ccc2ccccc2c1 (stereo not shown)

>  <log10 of AC50>
0.60

$$$$
>  <COMPOUND>
COCCOCOc1ccc2cc(C(=O)N(C)Cc3cccc(-c4ccc(CC5SC(=O)NC5=O)cc4)c3)ccc2c1 (stereo not shown)

>  <log10 of AC50>
-0.26

$$$$
>  <COMPOUND>
CCO[C@@H](Cc1ccc(-c2cccc(CN(C)C(=O)CCCCC(=O)c3ccccc3)c2)cc1)C(=O)O

>  <log10 of AC50>
0.89

$$$$
>  <COMPOUND>
CN(Cc1cccc(-c2ccc(CC3SC(=O)NC3=O)cc2)c1)C(=O)COc1ccccc1 (stereo not shown)

>  <log10 of AC50>
1.80

$$$$
>  <COMPOUND>
CN(C)c1ccc(NC(=O)N(C)c2cccc(-c3ccc(CC4SC(=O)NC4=O)cc3)c2)cc1 (stereo not shown)

>  <log10 of AC50>
0.62

$$$$
>  <COMPOUND>
CCO[C@@H](Cc1ccc(-c2cccc(CN(C)C(=O)c3ccc4cc(OCOCCOC)ccc4c3)c2)cc1)C(=O)O

>  <log10 of AC50>
0.00

$$$$
>  <COMPOUND>
CN(Cc1cccc(-c2ccc(CC3SC(=O)NC3=O)cc2)c1)C(=O)CCCCC(=O)c1ccccc1 (stereo not shown)

>  <log10 of AC50>
0.51

$$$$
>  <COMPOUND>
CN(C(=O)Nc1ccc2ccccc2c1)c1cccc(-c2ccc(CC3SC(=O)NC3=O)cc2)c1 (stereo not shown)

>  <log10 of AC50>
1.34

$$$$
